# credit: ChEMBL document CHEMBL1143006

pKd: −log10 of the molar value.
The following molecules each carry a recorded pKd for Growth factor receptor-bound protein 2 (Homo sapiens, UniProt P62993).
Result type: pKd

(P) NC(=O)C[C@H](NC(=O)C1(NC(=O)[C@@H](CC(=O)O)Cc2ccc(CP(=O)(O)O)cc2)CCN(C(=O)OCc2ccccc2)CC1)C(=O)NCCCc1ccc2ccccc2c1
(Q) NC(=O)C[C@H](NC(=O)C1(NC(=O)[C@@H](CC(=O)O)Cc2ccc(CP(=O)(O)O)cc2)CCN(C(=O)CCCc2ccccc2)CC1)C(=O)NCCCc1ccc2ccccc2c1
(R) NC(=O)C[C@H](NC(=O)C1(NC(=O)[C@@H](CC(=O)O)Cc2ccc(CP(=O)(O)O)cc2)CCN(C(=O)OCc2ccc(C(=O)O)cc2)CC1)C(=O)NCCCc1ccc2ccccc2c1
(S) NC(=O)C[C@H](NC(=O)C1(NC(=O)[C@@H](CC(=O)O)Cc2ccc(CP(=O)(O)O)cc2)CCN(C(=O)CCCCc2ccccc2)CC1)C(=O)NCCCc1ccc2ccccc2c1
Sort the listed molecules above so the one with the largest pKd comes first and the smallest comes last. Answer by naming the labels in the order asked. Q, P, R, S
(Q: 7.57, P: 6.49, R: 6.06, S: 5.66)
